The following compounds are shown together with reported Ki values.
- targetDesc: Adrenergic receptor alpha-1 (Homo sapiens, UniProt P35348+P25100+P35368)
- Sequence (P35348 whole entry): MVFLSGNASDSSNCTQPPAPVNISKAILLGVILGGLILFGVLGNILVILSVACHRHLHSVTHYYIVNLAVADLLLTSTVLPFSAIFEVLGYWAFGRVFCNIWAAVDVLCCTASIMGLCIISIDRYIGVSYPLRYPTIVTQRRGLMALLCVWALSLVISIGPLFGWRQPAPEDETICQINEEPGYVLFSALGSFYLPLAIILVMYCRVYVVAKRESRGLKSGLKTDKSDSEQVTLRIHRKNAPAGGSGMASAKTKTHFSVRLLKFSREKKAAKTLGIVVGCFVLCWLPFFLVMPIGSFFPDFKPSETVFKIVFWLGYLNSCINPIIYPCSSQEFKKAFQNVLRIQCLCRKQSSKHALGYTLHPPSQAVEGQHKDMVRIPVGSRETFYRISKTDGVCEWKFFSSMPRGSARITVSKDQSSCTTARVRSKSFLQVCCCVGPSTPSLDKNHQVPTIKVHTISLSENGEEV
- Sequence (P25100 whole entry): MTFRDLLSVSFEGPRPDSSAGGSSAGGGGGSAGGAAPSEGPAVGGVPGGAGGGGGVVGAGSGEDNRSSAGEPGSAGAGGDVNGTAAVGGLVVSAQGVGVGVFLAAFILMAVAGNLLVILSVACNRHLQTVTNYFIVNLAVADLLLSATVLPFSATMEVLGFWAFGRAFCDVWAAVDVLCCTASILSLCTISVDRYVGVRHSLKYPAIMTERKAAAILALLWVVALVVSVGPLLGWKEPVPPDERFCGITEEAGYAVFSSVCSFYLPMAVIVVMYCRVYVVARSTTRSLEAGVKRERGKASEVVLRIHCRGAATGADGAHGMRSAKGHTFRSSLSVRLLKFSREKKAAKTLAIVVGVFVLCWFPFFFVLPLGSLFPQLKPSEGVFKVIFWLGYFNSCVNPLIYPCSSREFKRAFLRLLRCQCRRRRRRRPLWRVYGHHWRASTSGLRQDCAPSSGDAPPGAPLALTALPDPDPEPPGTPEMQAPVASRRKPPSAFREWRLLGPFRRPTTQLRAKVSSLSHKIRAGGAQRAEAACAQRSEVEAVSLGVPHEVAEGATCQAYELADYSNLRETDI
- Sequence (P35368 whole entry): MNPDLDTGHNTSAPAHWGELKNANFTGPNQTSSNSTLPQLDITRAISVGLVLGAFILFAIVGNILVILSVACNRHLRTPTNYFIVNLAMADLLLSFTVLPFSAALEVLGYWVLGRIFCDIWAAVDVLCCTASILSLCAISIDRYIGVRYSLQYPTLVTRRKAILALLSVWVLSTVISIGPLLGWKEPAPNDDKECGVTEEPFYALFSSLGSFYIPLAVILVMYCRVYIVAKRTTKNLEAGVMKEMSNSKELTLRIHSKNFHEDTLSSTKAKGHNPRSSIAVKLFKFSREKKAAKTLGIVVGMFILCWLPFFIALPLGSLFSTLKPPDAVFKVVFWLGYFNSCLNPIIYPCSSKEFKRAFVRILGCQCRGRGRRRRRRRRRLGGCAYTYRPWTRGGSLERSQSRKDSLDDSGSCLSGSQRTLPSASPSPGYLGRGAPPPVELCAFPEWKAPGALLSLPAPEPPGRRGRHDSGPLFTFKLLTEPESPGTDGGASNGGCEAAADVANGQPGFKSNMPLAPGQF
- experimentalDetails: Inhibition of alpha1 adrenergic receptor (unknown origin)
Hi! Could you send only the number? It should be in µM, unit omitted.

The following compounds have reported results that may help.
- compound: "c1ccc2c(c1)CC(CN1CCN(c3ccc4c(c3)OCCO4)CC1)C2"
  measuredNumber: 0.967
- compound: "Fc1ccc(N2CCN(CCC3OCCc4ccccc43)CC2)cc1 (centres undefined)"
  measuredNumber: 0.038

Continue with the compound presented below.
Requested field: Ki. Item: CN1C(=O)C(N2CCN(Cc3ccc(Cl)cc3)CC2)Cc2ccccc21 (centres undefined)
2.003
